Classify: yes when melting point is strictly less than 200 °C; no when melting point is not.

• O=C(NC(Cc1ccc(OCc2ccc3ccc(F)cc3n2)cc1)C(=O)O)c1cc2ccccc2cn1 (centres unmarked) [Compound 22] = no
• O=C(NC(Cc1ccc(OCc2ccc3ccccc3n2)cc1)C(=O)O)c1c[nH]c2ccccc12 (centres unmarked) [Compound 24] = no
• COc1ccc(C(=O)NC(Cc2ccc(OCc3ccc4ccccc4n3)cc2)C(=O)O)cc1 (centres unmarked) [Compound 5] = no
• O=C(NC(Cc1ccc(OCc2ccc3ccccc3n2)cc1)C(=O)O)c1ccc(-c2ccccc2)cn1 (centres unmarked) [Compound 30] = yes
• O=C(NC(Cc1ccc(OCc2ccc3ccccc3n2)cc1)C(=O)O)c1cc2ccccc2[nH]1 (centres unmarked) [Compound 23] = no

Origin of measurements: patent US6605722B2
